I'd be grateful if you could share measured EC50 for these entries.
- TGT: human GPR40 (Homo sapiens)
- ASSAY: Induction of Ca2+ (calcium flux assay) using human GPR40 expression cell line
- CONDITION_SUMMARY: read-out: EC0.5
Numeric only. Scale: nM

*Q* Record request: EC50 value, item `CC#C[C@@H](CC(=O)O)c1ccc(OCc2ccc3ccn(Cc4ccccc4)c3c2C)cc1`
*A* 20

*Q* Record request: EC50 value, item Cc1cc(F)ccc1-n1ccc2ccc(COc3ccc4c(c3)OCC4CC(=O)O)cc21 (centres unmarked)
*A* 20

*Q* Record request: EC50 value, item `O=C(O)CCc1ccc(OCc2ccc3cnn(CC4CCCC4)c3c2)cc1F`
*A* 200

*Q* Record request: EC50 value, item `CC#C[C@@H](CC(=O)O)c1ccc(OCc2ccc3c(cnn3CCc3ccccc3)c2)cc1`
*A* 4

* * *

I'd be grateful if you could share measured pEC50 for these entries.
- TGT: human GPR40 (Homo sapiens, UniProt O14842)
- Construct: expressed in transfected cells; host or cells: CHO-K1
- Sequence (O14842 whole entry): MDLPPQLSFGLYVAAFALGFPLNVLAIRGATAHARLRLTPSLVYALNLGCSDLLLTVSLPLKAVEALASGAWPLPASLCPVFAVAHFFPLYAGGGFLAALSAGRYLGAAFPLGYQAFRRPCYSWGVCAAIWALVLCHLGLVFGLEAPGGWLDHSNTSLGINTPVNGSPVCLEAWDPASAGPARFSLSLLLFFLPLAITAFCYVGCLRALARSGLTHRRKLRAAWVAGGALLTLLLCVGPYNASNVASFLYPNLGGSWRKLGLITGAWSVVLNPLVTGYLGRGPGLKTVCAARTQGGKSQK
- ASSAY: Induction of Ca2+ (calcium flux assay) using human GPR40 expression cell line
- Format: cell-based
- CONDITION_SUMMARY: read-out: EC0.5
- Protocol: Evaluation of the Test Compounds for Induction of Ca^2+ Using Human GPR40 Expression Cell Line The cell line expressing human GPR40 was generated by transfection of the GPR40 expression vector into CHO-K1 cell, and used in the following calcium flux assay. […] After the above pre-treatment, the change in the intracellular calcium concentration when each concentration of the test compound solutions was added at 50 μl was measured by FlexStation II^384. […]
Lab note — pEC50 values are minus log10 of concentrations in M.

*Q* Could you share what pEC50 was measured for `CC#C[C@@H](CC(=O)O)c1ccc(OCc2ccc3ccn(Cc4ccccc4C)c3c2C)cc1` , tested on human GPR40 (Homo sapiens, UniProt O14842)?
*A* 7.22

*Q* Could you share what pEC50 was measured for Cc1c(COc2ccc3c(c2)OCCC3CC(=O)O)ccc2ccn(Cc3ccccc3)c12 (stereo not drawn) , tested on human GPR40 (Homo sapiens, UniProt O14842)?
*A* 7.40

* * *

- TGT: human GPR40 (Homo sapiens, UniProt O14842)
- ASSAY: Induction of Ca2+ (calcium flux assay) using human GPR40 expression cell line
- CONDITION_SUMMARY: read-out: EC0.5
READOUT_LABEL: pEC50
Lab note — pEC50 values are minus log10 of concentrations in M.

*Q* Record request: pEC50 value, item CC#C[C@@H](CC(=O)O)c1ccc(OCc2ccc3onc(CC(C)C)c3c2)cc1 [Example 181]
*A* 8.22

*Q* Record request: pEC50 value, item CC#C[C@@H](CC(=O)O)c1ccc(OCc2cccc3c2cnn3Cc2ccc(F)cc2)cc1 [Example 71]
*A* 7.70

*Q* Record request: pEC50 value, item O=C(O)CCc1ccc(NCc2ccc3c(Cl)c(Cl)n(Cc4ccccc4)c3c2)cc1 [Example 6]
*A* 7.00

*Q* Record request: pEC50 value, item O=C(O)C1CC1c1ccc(OCc2ccc3cnn(Cc4ccccc4)c3c2)cc1 (stereo not drawn) [Example 167]
*A* 7.22

*Q* Record request: pEC50 value, item Cc1c(COc2ccc([C@H](CC(=O)O)c3ccon3)cc2)ccc2ccn(Cc3ccccc3)c12 [Example 83]
*A* 8.00

*Q* Record request: pEC50 value, item CC#C[C@@H](CC(=O)O)c1ccc(OCc2cccc3c2cnn3CC2CC2)cc1 [Example 199]
*A* 7.77

*Q* Record request: pEC50 value, item CC#C[C@@H](CC(=O)O)c1ccc(OCc2cccc3c2cnn3CCCC)cc1 [Example 197]
*A* 8.30

*Q* Record request: pEC50 value, item CC#C[C@@H](CC(=O)O)c1ccc(OCc2ccc3ccn(Cc4cccc(CS(C)(=O)=O)c4)c3c2C)cc1 [Example 35]
*A* 8.00

*Q* Record request: pEC50 value, item CC(C)n1ncc2ccc(COc3ccc([C@H](CC(=O)O)c4ccon4)cc3)cc21 [Example 96]
*A* 7.52

*Q* Record request: pEC50 value, item CC(CC(=O)O)c1ccc(OCc2ccc3c(cnn3Cc3ccccc3)c2)cc1 (stereo not drawn) [Example 158]
*A* 7.30

*Q* Record request: pEC50 value, item O=C(O)C[C@@H](c1ccc(OCc2ccc3cn[nH]c3c2)cc1)c1ccon1 [Example 102]
*A* 6.40

*Q* Record request: pEC50 value, item Cc1cc(F)ccc1-n1ccc2ccc(COc3ccc(CCC(=O)O)cc3)cc21 [Example 17]
*A* 8.15

*Q* Record request: pEC50 value, item CC#C[C@@H](CC(=O)O)c1ccc(OCc2ccc3ccn(Cc4cccc(COC)c4)c3c2C)cc1 [Example 30]
*A* 7.40

*Q* Record request: pEC50 value, item O=C(O)C[C@@H](c1ccc(OCc2cccc3c2cnn3Cc2ccccc2)cc1)c1ccon1 [Example 94]
*A* 7.22

*Q* Record request: pEC50 value, item CC#C[C@@H](CC(=O)O)c1ccc(OCc2ccc3cnn(CC(C)C)c3c2C)cc1 [Example 211]
*A* 8.40

*Q* Record request: pEC50 value, item CC#C[C@@H](CC(=O)O)c1ccc(OCc2ccc3c(c2)nnn3Cc2ccccc2)cc1 [Example 124]
*A* 7.30

*Q* Record request: pEC50 value, item O=C(O)CCc1ccc(OCc2ccc3ccn(-c4ccsc4)c3c2)cc1 [Example 13]
*A* 7.70
